# PROTOCOL DESCRIPTION: Single ascending oral dose study in healthy volunteers: plasma pharmacokinetics
# Format: in vivo, human
# TEST SETTINGS: human, plasma, oral, 350 mg + 525 mg; read-out: AUC0-∞, Median
QUANTITY KIND: AUC(0-inf)

[
  {
    "QUERY SMILES": "Cn1cc(S(=O)(=O)[C@@](C)(F)C2CCN(C(=O)Nc3ccon3)CC2)c(C(F)F)n1",
    "ENDPOINT RESULT": "68.8 µg·h/mL"
  }
]

###

# PROTOCOL DESCRIPTION: Single ascending oral dose study in healthy volunteers: plasma pharmacokinetics
# Assay type: in vivo, human
# TEST SETTINGS: human, plasma, oral, 350 mg + 525 mg; read-out: Cmax, Mean
QUANTITY KIND: Cmax (ng/mL)

[
  {
    "QUERY SMILES": "Cn1cc(S(=O)(=O)[C@@](C)(F)C2CCN(C(=O)Nc3ccon3)CC2)c(C(F)F)n1",
    "ENDPOINT RESULT": 2580
  }
]

###

# PROTOCOL DESCRIPTION: Food effect cross-over study, 200 mg (25 mg tablets), healthy volunteers: plasma pharmacokinetics
# Format: in vivo, human
# TEST SETTINGS: human, plasma, po, single 200 mg oral dose, Fed (N = 10), read-out: MRT, Geometric Mean
QUANTITY KIND: MRT (h)

[
  {
    "QUERY SMILES": "Cn1cc(S(=O)(=O)[C@@](C)(F)C2CCN(C(=O)Nc3ccon3)CC2)c(C(F)F)n1",
    "ENDPOINT RESULT": 22.6
  }
]

###

# PROTOCOL DESCRIPTION: Single ascending oral dose study in healthy volunteers: plasma pharmacokinetics
# Format: in vivo, human
# TEST SETTINGS: human, plasma, oral, 350 mg + 525 mg; read-out: Vz/F, Geometric Mean
QUANTITY KIND: Vd/F (L)

[
  {
    "QUERY SMILES": "Cn1cc(S(=O)(=O)[C@@](C)(F)C2CCN(C(=O)Nc3ccon3)CC2)c(C(F)F)n1",
    "QUANTITY KIND": "Vd/F",
    "ENDPOINT RESULT": 126
  }
]

###

# PROTOCOL DESCRIPTION: Food effect cross-over study, 200 mg (25 mg tablets), healthy volunteers: plasma pharmacokinetics
# Format: in vivo, human
# TEST SETTINGS: human, plasma, oral, 4 hours postdose, Fasted, read-out: Plasma concentration, Mean

[
  {
    "QUERY SMILES": "Cn1cc(S(=O)(=O)[C@@](C)(F)C2CCN(C(=O)Nc3ccon3)CC2)c(C(F)F)n1",
    "concentration at 4 h (ng/mL)": 2220
  }
]

###

# PROTOCOL DESCRIPTION: Food effect cross-over study, 200 mg (25 mg tablets), healthy volunteers: plasma pharmacokinetics
# Assay type: in vivo, human
# TEST SETTINGS: human, plasma, oral, subjects who completed both fasted and fed periods (N = 9), read-out: Cmax, Fasted LSGM
QUANTITY KIND: Cmax (ng/mL)

[
  {
    "QUERY SMILES": "Cn1cc(S(=O)(=O)[C@@](C)(F)C2CCN(C(=O)Nc3ccon3)CC2)c(C(F)F)n1",
    "QUANTITY KIND": "Cmax",
    "VALUE UNIT": "ng/mL",
    "ENDPOINT RESULT": 2370
  }
]
